# assay_method_text: FAP-tagged hCCR5 fluorogen binding interference – cell-based, FAP-tagged human CCR5, Powderset3, counter-screen for beta2AR agonist project, dose response (AID 651855)
# test_parameters: FAP-tagged hCCR5 cells, MG2p fluorogen binding, flow cytometry; hits give high values
measure_name: percent span (%)
State the answer as a number, implicitly in %.

c1ccc(-c2nnc(SCc3nc4ccccc4[nH]3)n2Cc2ccco2)cc1    15.8
CC(C)CNc1ncnc2c1sc1nc(N3CCOCC3)c3c(c12)CC(C)(C)OC3    -9.78
CCC(NC(=O)c1cc(COc2ccc(C)nc2)on1)c1ccc(C)cc1 (stereo not given)    53.2
O=C(NC1CCc2ccccc21)c1cc(COc2cncc(Cl)c2)on1 (stereo not given)    4.03
Cc1ccc(OCc2nnc(SCc3nc4ccccc4[nH]3)n2Cc2ccco2)cc1    61.9

Now examine the next entry.
INPUT: Tell us which percent span value is on record for COCc1ccc(CN2CCCC(C(=O)Nc3ccc(-c4cccc(OC)c4)cc3)C2)o1 (stereo not given)
OUTPUT: 41.6

----------
# assay_method_text: FAP-tagged hCCR5 fluorogen binding interference – cell-based, FAP-tagged human CCR5, Powderset3, counter-screen for beta2AR agonist project, dose response (AID 651855)
# test_parameters: FAP-tagged hCCR5 cells, MG2p fluorogen binding, flow cytometry; hits give high values
measure_name: percent span (%)
State the answer as a number, implicitly in %.

Cc1ccc(NC(=O)C(c2ccc(Cl)cc2)N2CCOCC2)cc1 (stereo not drawn)    49.5
CC(Oc1ccc(Cl)cc1Cl)c1nc(-c2ccc(NC(=O)c3ccco3)cc2)no1 (stereo not drawn)    42.1

INPUT: Tell us which percent span value is on record for `CC1(C)Cc2c(c(N3CCOCC3)nc3sc4c(NCCN)ncnc4c23)CO1`
OUTPUT: 116

----------
# EC50 annotations
# System: FAP-tagged hCCR5 cells, MG2p fluorogen binding, flow cytometry
# assay_method_text: FAP-tagged hCCR5 fluorogen binding interference – cell-based, FAP-tagged human CCR5, Powderset3, counter-screen for beta2AR agonist project, dose response (AID 651855)

Previously resolved entries follow.
CC(=O)Nc1ccc(S(=O)(=O)N2CCC(Oc3ccc(-n4cnnn4)cc3)CC2)cc1    60.9 nM
Clc1ccc(OCc2nnc(SCc3nc4ccccc4[nH]3)n2Cc2ccco2)cc1    10 nM
CN(Cc1ccccc1)S(=O)(=O)c1ccc(NS(=O)(=O)Cc2ccccc2)cc1    106 nM

Now examine the next entry.
INPUT: Tell us which EC50 value is on record for `Cn1c(N2CCN(c3ccccn3)CC2)nc2c1c(=O)n(Cc1ccc(Cl)cc1)c(=O)n2C`
OUTPUT: 20.9 nM

----------
# percent span annotations
# assay_method_text: FAP-tagged hCCR5 fluorogen binding interference – cell-based, FAP-tagged human CCR5, Powderset3, counter-screen for beta2AR agonist project, dose response (AID 651855)
# test_parameters: FAP-tagged hCCR5 cells, MG2p fluorogen binding, flow cytometry; hits give high values
State the answer as a number, implicitly in %.

Previously resolved entries follow.
COC(=O)c1ccc(CNC(=O)c2cc(COc3cncc(Cl)c3)on2)cc1    28.2
Cc1ccc(-c2nc3ncccc3o2)cc1NC(=O)c1sc2ccccc2c1Cl    35.8
O=C(c1cc2c(=O)n3ccccc3nc2s1)N1CCN(Cc2ccc3c(c2)OCO3)CC1    39.7

Now examine the next entry.
INPUT: Tell us which percent span value is on record for `CCCCN(C(=O)c1ccc(NC(=O)C(C)C)cc1)c1ccccc1`
OUTPUT: 31.9

----------
# System: FAP-tagged hCCR5 cells, MG2p fluorogen binding, flow cytometry
# assay_method_text: FAP-tagged hCCR5 fluorogen binding interference – cell-based, FAP-tagged human CCR5, Powderset3, counter-screen for beta2AR agonist project, dose response (AID 651855)
measure_name: EC50

Previously resolved entries follow.
COc1ccc(OC)c(CCNC(=O)C2CCN(c3nnc(-n4cccc4)s3)CC2)c1    919 nM
C=CCn1c(CCNC(=O)c2cccs2)nnc1SCC(=O)c1ccc(Br)cc1    17.5 nM
Clc1cccc(-c2nnc(SCc3nc4ccccc4[nH]3)n2Cc2ccco2)c1    10400 nM
C=CCn1c(CCNC(=O)c2cccs2)nnc1SCC(=O)c1ccc(Cl)cc1    7.09 nM
Cc1ncc(CN2CCCC(C(=O)Nc3ccc(-c4cccc(F)c4)cc3)C2)s1 (stereo not given)    1240 nM

INPUT: // fetch EC50 for CC(Sc1nc(-c2ccccc2)cc(C(F)(F)F)n1)C(=O)N1CCCCC1 (stereo not given) ; system: FAP-tagged hCCR5 cells, MG2p fluorogen binding, flow cytometry
OUTPUT: 25.5 nM

INPUT: // fetch EC50 for `Cc1ccc(Cn2ccc(NC(=O)c3cc4nc(-c5ccco5)cc(C(F)(F)F)n4n3)n2)cc1` ; system: FAP-tagged hCCR5 cells, MG2p fluorogen binding, flow cytometry
OUTPUT: 8.96 nM

INPUT: // fetch EC50 for CC(Sc1nc(-c2ccccc2)cc(C(F)(F)F)n1)C(=O)N1CCOCC1 (stereo not given) ; system: FAP-tagged hCCR5 cells, MG2p fluorogen binding, flow cytometry
OUTPUT: 26.9 nM

INPUT: // fetch EC50 for `CSc1nc(SCCO)c2sc3nc(-c4ccco4)c4c(c3c2n1)CC(C)(C)OC4` ; system: FAP-tagged hCCR5 cells, MG2p fluorogen binding, flow cytometry
OUTPUT: 1870 nM

INPUT: // fetch EC50 for CC(Oc1ccc(Cl)cc1Cl)c1nc(-c2ccc(NC(=O)c3ccccn3)cc2)no1 (stereo not given) ; system: FAP-tagged hCCR5 cells, MG2p fluorogen binding, flow cytometry
OUTPUT: 427 nM

INPUT: // fetch EC50 for `Cc1ccc(OCc2cc(C(=O)N(C)Cc3cnn(-c4ccccc4C)c3)no2)cn1` ; system: FAP-tagged hCCR5 cells, MG2p fluorogen binding, flow cytometry
OUTPUT: 110 nM

INPUT: // fetch EC50 for `CC(C)Cc1nc2sc3c(NCc4ccco4)ncnc3c2c2c1COC(C)(C)C2` ; system: FAP-tagged hCCR5 cells, MG2p fluorogen binding, flow cytometry
OUTPUT: 39.4 nM

INPUT: // fetch EC50 for `C=CCn1c(CCNC(=O)c2cccs2)nnc1SCC(=O)c1cccc([N+](=O)[O-])c1` ; system: FAP-tagged hCCR5 cells, MG2p fluorogen binding, flow cytometry
OUTPUT: 2.41 nM

INPUT: // fetch EC50 for `CC1(C)Cc2c(c(N3CCCC3)nc3sc4c(N5CCN(CCO)CC5)ncnc4c23)CO1` ; system: FAP-tagged hCCR5 cells, MG2p fluorogen binding, flow cytometry
OUTPUT: 2960 nM

INPUT: // fetch EC50 for `Cc1ccccc1N1CCN(c2ncnc3c2cnn3Cc2ccc(Cl)cc2)CC1` ; system: FAP-tagged hCCR5 cells, MG2p fluorogen binding, flow cytometry
OUTPUT: 4330 nM

src = PubChem BioAssay AID651855
